Reference source for all entries: the supplement of paper PMC9170038

tested on: K4 kissing-loop RNA reporter; assay: apparent KD of K4 kissing-loop reporter; higher = weaker reporter binding; settings: Eterna round: R107; input ligand: tryptophan 2.4 mM
Items are presented alongside their recorded apparent KD of K4 kissing-loop reporter.
Just the number please, in nM, no unit attached.

These solved cases illustrate the format of a correct answer.
item-sequence	endpoint	recorded-measurement
CUCCAACUUGAUGAUACCAGAGAGGAGGAAGUGAUGUUGACUCCGGCUACAUACUGGCGACUCCCUUGGCAGCAUUACGUCAUCC [theeternabot_sameState_KL_Theo_B_3]	apparent KD of K4 kissing-loop reporter	353
UUUGGAAGCGGUGUUGAUUAGGGAGCGGAAGGAGCGCCGAUUAUGGCAGGUAGGUCGCCGGAAUGUAGUGAUGUUGCAUAGAGGG [ExArgA.W]	apparent KD of K4 kissing-loop reporter	83.9

Could you now consider this next sequence?
Please look up its apparent KD of K4 kissing-loop reporter: AGGCACGAGCAAGGAUAUUGAGUAGAGUGAUGUUCUGCCUAAGUUGGCUCGAAAGAGCCUUCUUAGCGAGAAGGUGCUCGUGCCU [#2 Same State - FMN A Attempt #26 (HarryS)] 763

###

test system: MS2 coat protein; test: apparent KD of MS2 coat protein; higher = weaker reporter binding; details: Eterna round: R107; input ligand: arginine 13.2 mM
Items are presented alongside their recorded apparent KD of MS2 coat protein.
Just the number please, in nM, no unit attached.

These solved cases illustrate the format of a correct answer.
item-sequence	apparent KD of MS2 coat protein (nM)
ACAUGAGGAUCACCCAUGUUCCUCGCCGAUACCAGUGAAGAAUUACGCCCUUGGCAGCGGAAAGAGUGUUUUGGAGAUGAGGUAC [6.aA]	80.5
UGUAUGGACUGAAGGAGCGCCUCAAAAUAUCAUGAGGAUCACCCAUGGAAGGCGAAAGCCGGGCAGGUAGGUCGCAGUCCAUACU [ArgBX 3]	20.2
ACGAUAGGACUUGAGGAACACCCAAGUGAUACCAGCCUGGAAACAGGCCCUUGGCAGCACUAAUACUCCAAUAACCUAUCGAAUA [TheoAX 15 #MicroSwitchBubble #AlternativeMS2]	140
GGGUAAGAUCCGGAUACCAGCGAACAUGAGGAUCACCCAUGUGACCUAAGAUAGGCUAAACGCCCUUGGCAGCCGAGAUAGCGUU [Same State Theophylline B GF 6]	27.2
GGAUAGGACAGAAGGAGCGACAUCGCCGAAAGGCUGGUAAGAUCACAUGAGGAUCACCCAUGUCAGGUAGGUCGCUGUCCUAUCG [ArgXB 11 #Zipper #MS2Left #StaticStem #Blueprint]	92.2

Could you now consider this next sequence?
Could you share what apparent KD of MS2 coat protein was measured for AGUUACAUGAGGAUCACCCAUGUCCGGUUGCGAGGACCGGUACGGCCGCCACUCGGGUACAUCCCAGAAAAUACUGAAUGCCUGC [theeternabot_sameState_MS2_Trp_A_15] , tested on MS2 coat protein? 41.8

###

Items are presented alongside their recorded apparent KD of K4 kissing-loop reporter.
tested on: K4 kissing-loop RNA reporter; test: apparent KD of K4 kissing-loop reporter; higher = weaker reporter binding; details: Eterna round: R107; input ligand: arginine 13.2 mM;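 also: bound reporter read as fluorescence of individual clusters on recovered sequencing chips by microscopy, with normalized cluster intensities fitted with a binding model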
Just the number please, in nM, no unit attached.

item-sequence	tgt	recorded-measurement
GGACCACCAGUGAUGUUGGAGAUAAACUCCAAGGAUAUGACGAAAGUCAGAAGGUGGUAAUAAGACGUCAAAGACGUCAGGUCCA [FmnA 20 #SwitchBubble #K4Early]	K4 kissing-loop RNA reporter	116
AGCGUCUGAAGAGGAUAUGACCAGUGAUGUUGGUUACUACCUCAAAUUAGUGUCGCGCCAAAAUCGUCAGAAGGCUUCGGCGCGC [Ussoes]	K4 kissing-loop RNA reporter	92
CACUUACGUAGUGAUGUUACGAUCUCUGAUACCAGACAACUCUAAGUCCCUUGGCAGCAGUCAUUUUGCUUUUAAUUUACUCAAA [JR_ExcTheophyA_Sub014]	K4 kissing-loop RNA reporter	572
AAUAUAAAGUCGGCCGCCACUGGAUUUAUAUUUGUUAAAUCUGGAUCAAAGUGAUGUUUUGAGUCCAGGACCGGGACAAUUGUUA [JR_ExcTryptoB_Sub001]	K4 kissing-loop RNA reporter	117
CCGAUACAUUAUUCUACGGCCGAGAGCGAUACCAGCCAAAUUUAUGGCCCUUGGCAGCGCAGAUGCAGUGAUGUUGCAUACAUAC [Same State Theophylline A GF 18]	K4 kissing-loop RNA reporter	158
GGAUAGGACAGAGGAUAUGGUAGCUAGGCAAGAAUAACUUGUCUAGCAUCCAUGAGGAGUGAUGUUCCAGAAGGCUGUCCUAUCG [FmnBX 5 - #SwitchBubble #StaticStem]	K4 kissing-loop RNA reporter	145
CGUGGUGCUCGCCAGCUGUGCGAGCGGUGGGAGGAUAUGUCGCGAGACAGAAGGCCCAGUGAUGUUGGGCAGGCUCGUAGAUCAA [Orbemaed]	K4 kissing-loop RNA reporter	118
UCUGUUGUAUAUGAUACCAGCAGUGAGAGACAGGAAGUAUAGUGAUGUUAUAUGAGAGAAUGCCCUUGGCAGCGUGUGCGGGUGG [SSTheophylB.X]	K4 kissing-loop RNA reporter	130

Please look up its apparent KD of K4 kissing-loop reporter: UGACUGGAUGGAAGGAGCGCUAAACUCCUAGUGAUGUUAGGGAUACGAGGCAAAGCCUCGAGGCAGGUAGGUCGCCAUCUAGUCU [FiskerMod 24 - Jieux - Same State - Arginine B] 129

Please look up its apparent KD of K4 kissing-loop reporter: AACCACUCGUUACAUCACUAUCGAGUGGAACGAGGACCGGUACGGCCGCCACUCGAAUAGAUGCAGUGAUGUUGCAUCUUGGAAU [KL-SSTryp-A (BrourdMod)4 #dotplot2 strengthened] 141

Please look up its apparent KD of K4 kissing-loop reporter: GACUGGUUAACGAGUGAUGUUCGAUGGGAAGGAGCGCGCAGAAGUGCAGGUAGGUCGCCCUAUAACCAGGAAAUGGCUGGAUUAU [3.)] 224

###

tested on: MS2 coat protein; test: apparent KD of MS2 coat protein; designed switch direction (-1 OFF switch, 1 ON switch): 1; higher = weaker reporter binding; conditions: input ligand: microRNA oligo, concentration not stated
endpoint: apparent KD of MS2 coat protein (µM)
Just the number please, in µM, no unit attached.

These solved cases illustrate the format of a correct answer.
item-sequence	tgt	endpoint	recorded-measurement
AGCUAGUACCGAGGAUAUACAUACAUGAGGAUCACCCAUGUAUACAUGAAUUAAUGAGACUACAUGUAGAAGGCGGUACUAGCA [JL SSNG2 1.22] (Eterna round: R96, puzzle: Same State NG 2)	MS2 coat protein	apparent KD of MS2 coat protein	0.054
GCUAGGAUAUGCAGAGGAUCACCCUGUAGAAGGAGCAUUAGCUAGGAUAUGCAGAGGAUCACCCUGUAGAAGGAGCACUACUCU [pwkr ssNG3 DX 2xF5 +2xFMN.1] (Eterna round: R96, puzzle: Same State NG 3)	MS2 coat protein	apparent KD of MS2 coat protein	0.205

Please look up its apparent KD of MS2 coat protein: AUUAUUUCAUGAGGAUAUGGCACCUUAUUGGUGCCAGAAGGCAUGUCUAUUGACAUGAGGAUCACCCAUGUAUUAUAUUAUAUA [Eli NG1ss - 88] (Eterna round: R96, puzzle: Same State NG 1) 0.658

Please look up its apparent KD of MS2 coat protein: GCAUGGUUACAUGCUAUACAUGAGGAUCACCCAUGUGAUGGGAAGGAUAUGUCCUCAAUUAGUGGACAGAAGGUCCAAACAUUU [Fiskers NG3ss - 1] (Eterna round: R96, puzzle: Same State NG 3) 0.234

Please look up its apparent KD of MS2 coat protein: CCAACAUACAAUUUAAGAUCACAUGAGGAUCACCCAUGUAUGCAGGAUAUCAGCUCGAAUAGAGCUGAGAAGGGCAAUUUAAUU [SSNG3/1-A1] (Eterna round: R96, puzzle: Same State NG 3) 0.127

###

tested on: MS2 coat protein; assay: apparent KD of MS2 coat protein; designed switch direction (-1 OFF switch, 1 ON switch): -1; higher = weaker reporter binding; conditions: input ligand: FMN 200 uM
Items are presented alongside their recorded apparent KD of MS2 coat protein.
Just the number please, in nM, no unit attached.

These solved cases illustrate the format of a correct answer.
item-sequence	apparent KD of MS2 coat protein [nM]
GCACUGCGAGGAUAUACAUGAGGAUCACCCAUGUAUCGGUAGUCAAGGUUAAUUUAAGGUAGAAGGCGCGUAAA [JR_Ex3_Sub005] (Eterna round: R97, puzzle: Exclusion 3)	27.4
ACAUGUUGCGCAGGAUAUGGGACACAUGAGGAUCACCCAUGUGGCUACAUGUCAUACCAAGCGUCUCAGAAGGGUGUUAACAUG [Ex NG2 #36] (Eterna round: R96, puzzle: Exclusion NG 2)	20.1

Could you now consider this next sequence?
Please look up its apparent KD of MS2 coat protein: GCCUCACUUGAGGAUCACCCAAGUCAGGAUAUCUACAGGCCGGCCAUACCGACCUGCAAGAGAAGGGACUCUAA [Aristi] (Eterna round: R97, puzzle: Exclusion 1) 211
